The measurements presented in this section are drawn from patent US20120178782A1.

test system: MDA-MB-231; test: MTT cell proliferation assay, breast cancer cell line MDA-MB-231; type: cell-based, human; settings: single inhibitor, 72 hours culture, FIG. 1
Property Name: minimum inhibitory concentration (cell proliferation) (µM)
Report the value in µM with no unit label.

Examples with their reported minimum inhibitory concentration (cell proliferation) follow.
CN(CCOc1ccc(CC2SC(=O)NC2=O)cc1)c1ccccn1 (centres unmarked) | 75
Cc1c(C)c2c(c(C)c1O)CCC(C)(COc1ccc(CC3SC(=O)NC3=O)cc1)O2 (centres unmarked) | 75
CC(c1cc2ccccc2s1)N(O)C(N)=O (centres unmarked) | 500
CC1=C(C)C(=O)C(CCCCC#CCCCC#CCO)=C(C)C1=O | 10

# context switch: different compound, same minimum inhibitory concentration (cell proliferation)
Need minimum inhibitory concentration (cell proliferation) of CC(C)Cc1ccc(C(C)C(=O)O)cc1 (centres unmarked) , thanks.
500
